Origin of measurements: paper PMC13231165

Biological target: PCV2 Rep WT (catalytically inactive) (Porcine circovirus 2 (PCV2))
Assay: fluorescence polarization
Settings: 50 mM NaCl, 50 mM HEPES pH 8.0, 0.05% Tween-20, 1 mM DTT, 5 uM MnCl2 (SI legend: 50 uM Mn2+) or EDTA; 10 nM FAM substrate, protein from 1 uM in 1:2 dilutions …
ASSAY_METRIC: Kd

SEQUENCE_INPUT	ASSAYED_SYSTEM	RESULT
CGUAAAAUAUUACCGUC [HUHRNA_FAM]	PCV2 Rep WT (catalytically inactive) (Porcine circovirus 2 (PCV2))	90 nM

[Q] State, in one line, measured Kd of CGTAAATATTACCGTC [HUHDNA_FAM]
[A] 6 nM
